Assay: Waters ACQUITY UPLC BEH C18, 100 × 2.1 mm, 1.7 µm, 40 °C, 0.28 mL/min, estimated dead time 0.63 min; A: water + 6.5 mM ammonium hydroxide; B: methanol + 6.5 mM ammonium hydroxide; gradient (min/%B) 0/0.5 4/70 4.5/98 5.4/98
Details: stereoisomer not certain
MEASUREMENT TYPE: LC retention time (min)
// return numeric value only (unit: min, not printed)

>  <COMPOUND>
CC([NH3+])C(=O)NCC(=O)[O-] (centres undefined)

>  <OBSERVED VALUE>
2.68

$$$$

// returns reported LC retention time for input COc1cc(O)cc(OC)c1
4.22

Request: NC(=O)c1ccc[n+](C2OC(COP(=O)(O)OP(=O)(O)OCC3OC(n4cnc5c(=O)[nH]cnc54)C(O)C3O)C(O)C2O)c1 (centres undefined)
1.26

Request: CC(O)CC(=O)O (centres undefined)
0.804

Request: Cn1cncc1CC(N)C(=O)O (centres undefined)
0.969

Request: CCOC(=O)C(N)Cc1c[nH]c2ccccc12 (centres undefined)
5.01

* * *

Test: RP, Waters ACQUITY UPLC HSS C18, 100 × 2.1 mm, 1.7 µm, 40 °C, 0.35 mL/min, estimated dead time 0.63 min; A: water + 0.1% formic acid; B: methanol + 0.1% formic acid; gradient (min/%B) 0/0.5 4/70 4.5/98 5.4/98
Conditions: stereoisomer not certain
MEASUREMENT TYPE: LC retention time (min)
// return numeric value only (unit: min, not printed)

Reference set, count: 4
>  <MOLECULE>
NCCCCC(=O)O

>  <MEASUREMENT TYPE>
LC retention time

>  <OBSERVED VALUE>
0.909

$$$$
>  <MOLECULE>
CC(=O)NC(CC(=O)O)C(=O)O (stereo unspecified)

>  <MEASUREMENT TYPE>
LC retention time

>  <OBSERVED VALUE>
1.23

$$$$
>  <MOLECULE>
NC(COP(=O)(O)O)C(=O)O (stereo unspecified)

>  <MEASUREMENT TYPE>
LC retention time

>  <OBSERVED VALUE>
0.759

$$$$
>  <MOLECULE>
NC(=O)C1CCCN1C(=O)C(Cc1cnc[nH]1)NC(=O)C1CCC(=O)N1 (stereo unspecified)

>  <MEASUREMENT TYPE>
LC retention time

>  <OBSERVED VALUE>
1.76

$$$$

// returns reported LC retention time for input O=C(NC(O)C(=O)O)c1ccccc1 (stereo unspecified)
2.8

* * *

# LC retention time values compiled below
Assay: Waters ACQUITY UPLC BEH C18, 100 × 2.1 mm, 1.7 µm, 40 °C, 0.28 mL/min, estimated dead time 0.63 min; A: water + 6.5 mM ammonium hydroxide; B: methanol + 6.5 mM ammonium hydroxide; gradient (min/%B) 0/0.5 4/70 4.5/98 5.4/98
Conditions: stereoisomer not certain
// return numeric value only (unit: min, not printed)

Reference set, count: 6
>  <COMPOUND>
Cn1c(=O)c2c([nH]c(=O)n2C)n(C)c1=O

>  <UNIT INFO>
min

>  <LC retention time>
2.29

$$$$
>  <COMPOUND>
NC(=O)c1ncn(C2OC(CO)C(O)C2O)n1 (configuration not stated)

>  <UNIT INFO>
min

>  <LC retention time>
0.858

$$$$
>  <COMPOUND>
Nc1nc2c(ncn2C2OC3COP(=O)(O)OC3C2O)c(=O)[nH]1 (configuration not stated)

>  <UNIT INFO>
min

>  <LC retention time>
1.87

$$$$
>  <COMPOUND>
COC1OC(CO)C(O)C(O)C1O (configuration not stated)

>  <UNIT INFO>
min

>  <LC retention time>
0.979

$$$$
>  <COMPOUND>
NCCCCC(=O)O

>  <UNIT INFO>
min

>  <LC retention time>
0.812

$$$$
>  <COMPOUND>
Cc1ncc(CO)c(CO)c1O

>  <UNIT INFO>
min

>  <LC retention time>
1.94

$$$$

// returns reported LC retention time for input O=c1[nH]c(=O)c2[nH]c(=O)[nH]c2[nH]1
0.828
